# assay explanation: yeast display, Sf9 membrane polyspecificity reagent, FACS + sequencing; frameworks hold sequencing errors
readout name: polyreactivity (PSR sort gate)

QVQLVESGGGLVQAGGSLRLSCAASGSIFYLNAMGWYRQAPGKERELVAAINSGGTTNYADSVKGRFTISRDNAKNTVYLQMNSLKPEDTAVYYCATDGYYYYYRVYKFDYWGQGTQVTVSS; low polyreactivity
QVQLVESGGGLVQAGGSLRLRCAASGSIFSSNAMGWYRQAPGKERELVAAITSGGSTYYADSVKGRFTISRDNAKHTVYLQMNSLKPEDTAVYYCAADDWGDGVYKLDYWGQGTQVTVSS; low polyreactivity
QVQLVESGGGLVQAGGSLRLSCAASGSIFHTYAMGWYRQAPGKERELVAAISGIGGSTYYADSVKGRFTISRDNAKNTVYLQMNSLKPEDTAVYYCAVELYWYPGYDYWGQGTQVTVSS; low polyreactivity
QVQLVESGGGLVQAGGSLRLSCAASGSTFIRNTMGWYRQAPGKERELLAAISRSGVRTYYADSVKGRFTISRDNAKNTVYLQINSLKPEDTAVSYCAAVSSLSYSFPYDYWGQGTQVTVST; high polyreactivity
QVQLVESGGGLVQAGGSLRLSCAASGRTFVSNALGWYRQAPGKERELVAAISSSGGSTYYADSVKGRFTISRDNAKNTVYLQMNSLKPEDPAVYYGATYPLYSKYRYDHWGQGTQVTVSS; high polyreactivity
QVQLVESGGGLVQAGGSLRLSCAASGIIFRRYAMGWYRQAPGKERELVAAITRGGITYYADSVKGRFTISRDNAKNTVYLQMNSLKPEDTAVYYCAATYSGTYSLGRGYDYWGQGTQVTVSS; low polyreactivity
QVQLVESGGGLVQAGGSLRLSSAASGSIFSIYAMGWYRQAPGKERELGAAITWSGGSTYYADSVKGRFTISRDNAKNTVYFQMNSLKPEDTAVYYCAAEIWFYYGGRKQRGGYWGQGTQVTVSS; high polyreactivity
QVQLVESGGGLVQAGGSLRLSCAASGSIFTRYAMGWYRQAPGKERELVAAITASGGRTYYADSVKGRFTISRDNAKNTVYLQMNSLKPEDTAVYYCNTYWRYTSQLPYDYWGQGTQVTVSS; high polyreactivity

Asked: Supply recorded polyreactivity (PSR sort gate) for QVQLVESGGGLVQAGGRLRLSCAPSGRIFVYNAMGWYRQAPGKERELVAAINSGDSTYYADSVKGRFTISRDNAKKTVYLQMNSLKPEDTAVYYCARDGWAFSIYYDLDYWGQGTQVTVSA here.
Given back: low polyreactivity

Asked: Supply recorded polyreactivity (PSR sort gate) for QVQRVESGVGLVQAGGSLRLRCAASGSIFQSYAMGWYRHAPGKERELVAAITERGGSTYYADSVKGRFTISRDNAKNTVYLQMNSLKPEDTAVYYCAAKAVGLGKSWRGDDYWGQRTQVTVSS here.
Given back: low polyreactivity

Asked: Supply recorded polyreactivity (PSR sort gate) for QVQLVESGGGLVQAGGSLRLSCAASGFIFHRYAMGGYRQAPGKERELVASITRSGGSTYYADSVKGRFTISRDNAKNTVYLQMNSLKPEDTAVYYCAAQLPSYYKYPRHDYWGQGTQVTVSS here.
Given back: high polyreactivity
